assay: soluble fraction after stress (log2 fold change); higher = more stays soluble; pooled small domains, quantitative proteomics; conditions: stress: 75 degC;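 also: 20 min heating vs room temperature control held 20 min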
Each entry gets no if its soluble fraction (log2) stays under -0.7, and yes if its soluble fraction (log2) is -0.7 or above.

Does `HMVELGMSQNEFIQKFGKPFNKEMAYTYDKHKRETLFYKEDLYRGSWFIVTTAFTFVDSKLVSQEIVREER` have a reported soluble fraction (log2) of at least -0.7?
no

// inclusive: soluble fraction (log2) at least -0.7? input: `HMNVPFGFDEVNGKLVKNEEEQAIISEIKSLKNKGLSLRKIAEALNGRGIATKNGKAWTAVQIQRIA`
yes

Given the entry `HMAFDDAHYKDMITSYLKKFKKGNRSEIENLIIPKLSEVLVEKQKKDKVKNLLQALRKDNQIRLKGKYWYL` , answer whether its soluble fraction (log2) meets or surpasses -0.7.
yes

Dear colleague, could you confirm whether `HMRSLATFEEEKIALRFWNYLQSEGIKSTLEEEGPRDWVIWVIDEEKIPSATQSLEKFNLNPDDPAFSN` has soluble fraction (log2) at or above -0.7?
no

Is soluble fraction (log2) for `HMNEYSLVPDIYGMTYDDALSSLRNVGLDGRLALASTNEDLANADTRVVWQSKEAGSIIDKGSNVMFVID` at or above -0.7?
yes

Determine whether this sequence has soluble fraction (log2) no lower than -0.7: `HMKHMTMYEAAKIAKEVGAPKLWLTHYSPSMTRPEEFMDDVRKIFPAAYAAKDGWTMELNFDEG`
no

Does `HMKRISDEDLLVMRRIDEVHTYHPTWGYRTITRILRRDDHLLINPKKVRRIMRDMGIYTIYPK` have a reported soluble fraction (log2) of at least -0.7?
yes

Is soluble fraction (log2) for `HMEKIIFEISEEGKRLDLYIAERTELTRTRIQQLIKDGNINVNNKKSKPSYKVEKNDFIEMIIPDE` at or above -0.7?
no

Answer whether soluble fraction (log2) of `HMLLTASNYFKETKGINFSELPEALQKGHSFVIKSTENGTNWNAYSTSQNIQRVIDAYFSKLDEYLEKNQ` is greater than or equal to -0.7.
yes

Quick check, soluble fraction (log2) >= -0.7? `HMGGNKILTWKTDAATTRNQVPINERKEGLEISYKNEERNWVAEKYVGTSFSDDKWGVDYNWNQD`
yes

State whether the measured soluble fraction (log2) reaches -0.7, counting equality as reaching it, for `HMGMSMNEFLNNRLEQLAVEAVDKSSLGEEIFFYAEPATINLFKDAVDEDEYKVVFPVLKSIIEVEQKLSR`
no

Is soluble fraction (log2) at least -0.7? Consider `HMGDLKSLIQATMDDAGISIKPDAMDYLISHLGSDRLTTRAELDKLILYAGADDKLDLDSVVELVG`
yes

Decide: is the reported value of soluble fraction (log2) for `HMVTDVDYSTFLSQVEEGKVESVTIEDGEILFKGKDENGEARWYITGEMNDPNLVERLKDKVPSFNAPA` equal to or greater than -0.7?
yes

Check the entry `HMTSLAGIERFLASGAIAGVGEAMAHRLVQKFGKETLEIIEKKPSRLTEVAGVGKKTAAKIHASYMEK` : does soluble fraction (log2) equal or exceed -0.7?
yes

State whether the measured soluble fraction (log2) reaches -0.7, counting equality as reaching it, for `HMGSQQIEEGMRRLVASGALRPGASVPSVRDLARDLQVNPATVVRAYQRLVDAGLLVVRRGEGTFVAE`
no

Record `HMETKVIVPKVTGMNSKSAINYLSARGLKYKAVPADSGKSFHVVDQYPKSGTKVSPHSTVYLYS` ; criterion: soluble fraction (log2) no lower than -0.7. Met?
yes
